assay-protocol: Half life in human
Type: ADME
observable: half-life

Recorded half-life, per entry:
INSERT INTO results (compound, recorded_value) VALUES
  ('COC(=O)N[C@H](C(=O)N1CCC[C@H]1c1nc2cc([C@H]3CC[C@H](c4cc5nc([C@@H]6CCCN6C(=O)[C@@H](NC(=O)OC)[C@@H](C)OC)[nH]c5cc4F)N3c3cc(F)c(N4CCC(c5ccc(F)cc5)CC4)c(F)c3)c(F)cc2[nH]1)[C@@H](C)OC [PIBRENTASVIR]', '23 to 29 h'),
  ('COC(=O)N[C@H](C(=O)N1CCC[C@H]1c1nc(-c2ccc(-c3ccc(-c4c[nH]c([C@@H]5CCCN5C(=O)[C@@H](NC(=O)OC)C(C)C)n4)cc3)cc2)c[nH]1)C(C)C [DACLATASVIR]', '12 to 15 h'),
  ('COc1ccc2c(O[C@@H]3C[C@H]4C(=O)N[C@]5(C(=O)NS(=O)(=O)C6CC6)C[C@H]5/C=C\CCCCN(C)C(=O)[C@@H]4C3)cc(-c3nc(C(C)C)cs3)nc2c1C [SIMEPREVIR]', '10 to 13 h'),
  ('COC(=O)N[C@H](C(=O)N1CCC[C@H]1C(=O)Nc1ccc([C@@H]2CC[C@@H](c3ccc(NC(=O)[C@@H]4CCCN4C(=O)[C@@H](NC(=O)OC)C(C)C)cc3)N2c2ccc(C(C)(C)C)cc2)cc1)C(C)C [OMBITASVIR]', '21 to 25 h');

Short answer for COc1c(-c2ccc3cc(NS(C)(=O)=O)ccc3c2)cc(-n2ccc(=O)[nH]c2=O)cc1C(C)(C)C [DASABUVIR] : half-life was 5.5 to 6 h
